- System: human JAK1 (a.a. 837-1142) (Homo sapiens)
- Construct: human JAK1 (a.a. 837-1142); His tag (N); made in house; host or cells: insect cells (baculovirus)
- Sequence (P23458 849-1154): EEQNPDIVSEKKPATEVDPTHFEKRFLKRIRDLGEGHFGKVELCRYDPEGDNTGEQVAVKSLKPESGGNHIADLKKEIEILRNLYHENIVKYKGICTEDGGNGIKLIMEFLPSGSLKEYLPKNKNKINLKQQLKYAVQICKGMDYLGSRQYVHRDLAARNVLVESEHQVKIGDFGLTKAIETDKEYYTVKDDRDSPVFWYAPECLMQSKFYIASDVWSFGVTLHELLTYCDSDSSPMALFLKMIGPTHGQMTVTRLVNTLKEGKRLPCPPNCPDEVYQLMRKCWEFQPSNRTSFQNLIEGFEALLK
- Assay comment: In vitro JAK kinase assay (HTRF, phosphorylation of a biotinylated peptide), JAK1
- Format: biochemical
- Assay context: Table D1; read-out: JAK1 IC50
Where a name gives a salt, the structure may show the parent alone.
# reported IC50; entries follow
Give the value, in units of µM, as a plain number.

Compound	IC50, µM
CCS(=O)(=O)N1CCN(C(=O)COc2ccc3cc2CCc2cncc(c2)Nc2ncc(Cl)c(n2)N3)CC1 [Example D263, bis(trifluoroacetate)]	0.08

So what does the record say about IC50 for Clc1cnc2nc1Nc1cccc(c1)OCCc1cc(Br)cc(c1)N2 [Example D22, trifluoroacetate] ? 0.0042

Item: O=C(COc1ccc2cc1CCc1cncc(c1)Nc1ncc(Cl)c(n1)N2)N1CCN(S(=O)(=O)c2ccccc2F)CC1 [Example D253, bis(trifluoroacetate)] 0.035

* * *

- System: Recombinant Human Anaplastic Lymphoma Kinase (Homo sapiens)
- Construct: purchased Invitrogen, Carlsbad, Calif
- Assay comment: ALK HTRF kinase assay
- Format: biochemical
- Assay context: Table B1; cells without percent sign
Structures can show the parent of a compound that is named as a salt.
Measured endpoint: log10(IC50) (log10 of the value in µM)
Hello, just confirming the data are log10 of IC50 with units of µM.

Example results:
Compound	System	log10(IC50)
Cc1cccc(C(=O)Nc2ccc3cc2CCc2cccc(c2)Nc2ncc(Cl)c(n2)N3)c1 [Example B46, trifluoroacetate]	Recombinant Human Anaplastic Lymphoma Kinase (Homo sapiens)	-0.48
O=C(Cc1ccccc1)Nc1ccc2cc1CCc1cccc(c1)Nc1ncc(Cl)c(n1)N2 [Example B32, trifluoroacetate]	Recombinant Human Anaplastic Lymphoma Kinase (Homo sapiens)	-0.03
Cn1cccc1C(=O)Nc1ccc2cc1CCc1cccc(c1)Nc1ncc(Cl)c(n1)N2 [Example B50, trifluoroacetate]	Recombinant Human Anaplastic Lymphoma Kinase (Homo sapiens)	-0.64
O=C(Nc1ccc2cc1CCc1cccc(c1)Nc1ncc(Cl)c(n1)N2)c1ccco1 [Example B33, trifluoroacetate]	Recombinant Human Anaplastic Lymphoma Kinase (Homo sapiens)	-0.09
O=C(NCc1ccncc1)c1cc2cc(c1)Nc1nc(ncc1Cl)Nc1cccc(c1)CC2 [Example B11, bis(trifluoroacetate)]	Recombinant Human Anaplastic Lymphoma Kinase (Homo sapiens)	0.37

Item O=C(Nc1ccc2cc1CCc1cccc(c1)Nc1ncc(Cl)c(n1)N2)c1ccccc1F [Example B38, trifluoroacetate] has what recorded log10(IC50)? -0.68

Can you handle O=C(Nc1ccc2cc1CCc1cccc(c1)Nc1ncc(Cl)c(n1)N2)c1ccc(F)cc1 [Example B49, trifluoroacetate] next? -1.10

Then what about the compound CS(=O)(=O)Nc1ccc2cc1CCc1cccc(c1)Nc1ncc(Cl)c(n1)N2 [Example B140, trifluoroacetate] ? -0.82

* * *

- System: human JAK3 (a.a. 781-1124) (Homo sapiens, UniProt P52333)
- Construct: JAK3 (a.a. 781-1124); His tag (N); made in house; host or cells: insect cells (baculovirus)
- Sequence (P52333 781-1124): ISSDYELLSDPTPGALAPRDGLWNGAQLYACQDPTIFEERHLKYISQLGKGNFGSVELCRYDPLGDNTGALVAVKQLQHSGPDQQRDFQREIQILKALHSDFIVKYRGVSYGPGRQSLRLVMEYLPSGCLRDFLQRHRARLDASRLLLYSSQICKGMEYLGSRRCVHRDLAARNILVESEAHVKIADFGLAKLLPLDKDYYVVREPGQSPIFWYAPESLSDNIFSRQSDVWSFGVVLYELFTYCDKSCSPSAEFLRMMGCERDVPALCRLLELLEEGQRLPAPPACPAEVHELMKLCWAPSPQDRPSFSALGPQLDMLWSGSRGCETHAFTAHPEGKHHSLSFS
- Assay comment: In vitro JAK kinase assay (HTRF, phosphorylation of a biotinylated peptide), JAK3
- Type: biochemical
- Assay context: method AA1 (3 μM ATP) or AA2 (1000 μM ATP), not stated per value
Structures can show the parent of a compound that is named as a salt.
Measured endpoint: pIC50
A value of pIC50 is the negative decimal logarithm of a concentration given in moles per litre.

Check out these entries, answers already filled in.
Molecule	pIC50
O=C(CC1CCN(C(=O)Nc2ccccc2)CC1)Nc1ccc2cc1CCc1cccc(c1)Nc1ncc(Cl)c(n1)N2 [Example A58, trifluoroacetate]	7.66
Cn1ccc2c(NC(=O)N3CCC(C(=O)Nc4ccc5cc4CCc4cccc(c4)Nc4ncc(Cl)c(n4)N5)CC3)cccc21 [Example A41, trifluoroacetate]	6.80
O=C(CNC(=O)Nc1ccccc1)Nc1ccc2cc1CCc1cccc(c1)Nc1ncc(Cl)c(n1)N2 [Example A66, trifluoroacetate]	8.21
CC(C)(C)C(=O)N1CCC(CC(=O)Nc2ccc3cc2CCc2cncc(c2)Nc2ncc(Cl)c(n2)N3)CC1 [Example A112, bis(trifluoroacetate)]	6.62
O=C(CC1CCN(C(=O)NC2CCCC2)CC1)Nc1ccc2cc1CCc1cccc(c1)Nc1ncc(Cl)c(n1)N2 [Example A64, trifluoroacetate]	7.52

Which pIC50 value belongs to CC(C)C(=O)N1CCC(CC(=O)Nc2ccc3cc2CCc2cccc(c2)Nc2ncc(Cl)c(n2)N3)CC1 [Example A89, trifluoroacetate] ? 7.24

Also Cc1cc(C(=O)N2CCC(CCC(=O)Nc3ccc4cc3CCc3cccc(c3)Nc3ncc(Cl)c(n3)N4)CC2)no1 [Example A124, trifluoroacetate] , if possible. 7.41

* * *

Listing of recorded IC50 by entry.
- System: Recombinant Human Anaplastic Lymphoma Kinase (Homo sapiens, UniProt Q9UM73)
- Construct: purchased Invitrogen, Carlsbad, Calif
- Sequence (Q9UM73 19-1620): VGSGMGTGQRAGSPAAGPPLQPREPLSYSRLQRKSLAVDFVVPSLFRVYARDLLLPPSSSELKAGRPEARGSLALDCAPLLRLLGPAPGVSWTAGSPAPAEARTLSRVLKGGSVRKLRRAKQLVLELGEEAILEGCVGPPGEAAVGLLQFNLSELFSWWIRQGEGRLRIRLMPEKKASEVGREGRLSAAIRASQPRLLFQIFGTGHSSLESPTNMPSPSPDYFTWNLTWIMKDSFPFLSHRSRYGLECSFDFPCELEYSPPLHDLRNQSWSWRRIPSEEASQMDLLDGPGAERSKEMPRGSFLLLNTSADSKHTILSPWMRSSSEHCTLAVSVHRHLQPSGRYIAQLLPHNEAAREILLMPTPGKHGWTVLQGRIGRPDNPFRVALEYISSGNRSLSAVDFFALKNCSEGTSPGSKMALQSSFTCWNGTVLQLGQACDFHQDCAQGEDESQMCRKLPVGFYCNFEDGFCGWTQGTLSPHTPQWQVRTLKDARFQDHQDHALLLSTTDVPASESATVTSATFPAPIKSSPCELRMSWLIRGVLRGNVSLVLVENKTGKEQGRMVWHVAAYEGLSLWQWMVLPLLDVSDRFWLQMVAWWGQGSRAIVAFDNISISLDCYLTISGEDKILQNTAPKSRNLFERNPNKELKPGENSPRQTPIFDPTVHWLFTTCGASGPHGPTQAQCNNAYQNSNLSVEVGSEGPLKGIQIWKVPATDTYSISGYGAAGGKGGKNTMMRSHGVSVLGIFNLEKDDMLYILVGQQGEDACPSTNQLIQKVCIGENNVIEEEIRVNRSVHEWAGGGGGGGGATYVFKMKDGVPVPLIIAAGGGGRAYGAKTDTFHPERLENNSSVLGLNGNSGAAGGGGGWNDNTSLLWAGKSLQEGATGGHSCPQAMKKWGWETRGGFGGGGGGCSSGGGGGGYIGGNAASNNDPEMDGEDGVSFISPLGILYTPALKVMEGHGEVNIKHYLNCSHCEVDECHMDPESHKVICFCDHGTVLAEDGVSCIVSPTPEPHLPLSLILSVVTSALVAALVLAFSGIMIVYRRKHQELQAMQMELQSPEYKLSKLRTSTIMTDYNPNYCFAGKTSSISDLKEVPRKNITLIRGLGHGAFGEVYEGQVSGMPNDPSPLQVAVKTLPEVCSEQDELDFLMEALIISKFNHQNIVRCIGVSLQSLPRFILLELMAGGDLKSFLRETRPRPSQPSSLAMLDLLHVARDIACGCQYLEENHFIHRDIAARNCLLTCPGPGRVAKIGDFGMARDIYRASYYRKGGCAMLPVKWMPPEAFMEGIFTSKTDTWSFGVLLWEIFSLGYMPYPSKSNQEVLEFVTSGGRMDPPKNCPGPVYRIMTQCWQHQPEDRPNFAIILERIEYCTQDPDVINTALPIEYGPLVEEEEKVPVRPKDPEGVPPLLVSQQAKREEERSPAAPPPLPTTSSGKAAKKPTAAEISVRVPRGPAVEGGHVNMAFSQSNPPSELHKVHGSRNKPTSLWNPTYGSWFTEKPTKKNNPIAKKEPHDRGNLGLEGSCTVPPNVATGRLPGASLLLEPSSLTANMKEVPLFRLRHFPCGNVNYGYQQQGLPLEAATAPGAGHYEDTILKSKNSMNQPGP
- Assay comment: ALK HTRF kinase assay
- Assay type: biochemical
- Assay context: Table B1; cells without percent sign
Where a name gives a salt, the structure may show the parent alone.
Please give a number only; it is taken to be in nM.

Solved entries (count: 5):
Compound	Measured endpoint	Number
CC(=O)Nc1ccc(C(=O)Nc2ccc3cc2CCc2cccc(c2)Nc2ncc(Cl)c(n2)N3)cc1 [Example B45, trifluoroacetate]	IC50	95
Cn1cnc(S(=O)(=O)Nc2ccc3cc2CCc2cccc(c2)Nc2ncc(Cl)c(n2)N3)c1 [Example B144, bis(trifluoroacetate)]	IC50	600
N#Cc1cccc(C(=O)Nc2ccc3cc2CCc2cccc(c2)Nc2ncc(Cl)c(n2)N3)c1 [Example B65, trifluoroacetate]	IC50	290
O=C(Nc1ccccc1)c1ccc2cc1CCc1cccc(c1)Nc1ncc(Cl)c(n1)N2 [Example B200, trifluoroacetate]	IC50	4400
O=S(=O)(Nc1ccc2cc1CCc1cccc(c1)Nc1ncc(Cl)c(n1)N2)c1ccccc1Cl [Example B137, trifluoroacetate]	IC50	580

Entry Cn1cncc1C(=O)Nc1ccc2cc1CCc1cccc(c1)Nc1ncc(Cl)c(n1)N2 [Example B51, bis(trifluoroacetate)] : reported IC50 = ? 300

Next up: Cc1cnc2nc1Nc1cccc(c1)/C=C\c1cccc(c1)N2 [Example B1, trifluoroacetate] 786

Param item: O=S(=O)(Nc1ccc2cc1CCc1cccc(c1)Nc1ncc(Cl)c(n1)N2)c1cccc(Cl)c1 [Example B138, trifluoroacetate] 100

Ok, now CC(C)C(=O)Nc1ccc2cc1CCc1cccc(c1)Nc1ncc(Cl)c(n1)N2 [Example B55, trifluoroacetate] 930

Queued: O=C(Nc1ccc2cc1CCc1cccc(c1)Nc1ncc(Cl)c(n1)N2)c1ccncc1 [Example B39, bis(trifluoroacetate)] 86

And Cc1ccc(S(=O)(=O)Nc2ccc3cc2CCc2cccc(c2)Nc2ncc(Cl)c(n2)N3)cc1 [Example B150, trifluoroacetate] ? 180

Field entry: O=S(=O)(Nc1ccc2cc1CCc1cccc(c1)Nc1ncc(Cl)c(n1)N2)c1cccs1 [Example B146, trifluoroacetate] 130

Could you do the same for CC(=O)Nc1ccc2cc1CCc1cccc(c1)Nc1ncc(Cl)c(n1)N2 [Example B26, trifluoroacetate] , please? 1100

Can you handle O=C(Nc1ccc2cc1CCc1cccc(c1)Nc1ncc(Cl)c(n1)N2)c1cccc(F)c1 [Example B48, trifluoroacetate] next? 160

Same thing, different compound: Clc1cnc2nc1Nc1cc(cc(CN3CCNCC3)c1)CCc1cccc(c1)N2 [Example B191, dihydrochloride] 1530

Would you mind doing COc1ccc(C(=O)Nc2ccc3cc2CCc2cccc(c2)Nc2ncc(Cl)c(n2)N3)cc1 [Example B67, trifluoroacetate] as well? 220

Also need Cc1ccc(C(=O)Nc2ccc3cc2CCc2cccc(c2)Nc2ncc(Cl)c(n2)N3)cc1 [Example B47, trifluoroacetate] , thanks. 180

Now try N#Cc1cccc(S(=O)(=O)Nc2ccc3cc2CCc2cccc(c2)Nc2ncc(Cl)c(n2)N3)c1 [Example B153, trifluoroacetate] . 70

Same thing, different compound: O=C(Nc1ccc(CCO)cc1)c1cc2cc(c1)Nc1nc(ncc1Cl)Nc1cccc(c1)CC2 [Example B10, trifluoroacetate] 1960

* * *

- System: human JAK3 (a.a. 781-1124) (Homo sapiens)
- Construct: JAK3 (a.a. 781-1124); His tag (N); made in house; host or cells: insect cells (baculovirus)
- Assay comment: In vitro JAK kinase assay (HTRF, phosphorylation of a biotinylated peptide), JAK3
- Assay type: biochemical
- Assay context: Table D1
Measured endpoint: IC50

# example entries with known answers
Compound	System	IC50
N#Cc1ccc(NC(=O)N2CCC(CCOc3ccc4cc3CCc3cncc(c3)Nc3ncc(Cl)c(n3)N4)CC2)cc1 [Example D174, bis(trifluoroacetate)]	human JAK3 (a.a. 781-1124) (Homo sapiens)	> 400 nM
Cc1cc(C(=O)N2CCC(COc3ccc4cc3CCc3cncc(c3)Nc3ncc(Cl)c(n3)N4)CC2)no1 [Example D226, bis(trifluoroacetate)]	human JAK3 (a.a. 781-1124) (Homo sapiens)	> 400 nM
N#Cc1cccnc1N1CCN(C(=O)COc2ccc3cc2CCc2cncc(c2)Nc2ncc(Cl)c(n2)N3)CC1 [Example D238, tris(trifluoroacetate)]	human JAK3 (a.a. 781-1124) (Homo sapiens)	> 400 nM
O=C(C[C@H]1CCCN(C(=O)Nc2ccccc2)C1)Nc1ccc2cc1CCc1cncc(c1)Nc1ncc(Cl)c(n1)N2 [Example D199, bis(trifluoroacetate)]	human JAK3 (a.a. 781-1124) (Homo sapiens)	65 nM
O=C(c1cccnc1Cl)N1CCC(CCOc2ccc3cc2CCc2cncc(c2)Nc2ncc(Cl)c(n2)N3)CC1 [Example D179, tris(trifluoroacetate)]	human JAK3 (a.a. 781-1124) (Homo sapiens)	> 400 nM

Attention now shifts to the item below.
So what does the record say about IC50 for O=C(Nc1ccc(F)cc1)N1CCC(CCOc2ccc3cc2CCc2cncc(c2)Nc2ncc(Cl)c(n2)N3)CC1 [Example D168, bis(trifluoroacetate)] ? > 400 nM
